# experimental_system: Trypsin (Bos taurus)
# protocol_text: In vitro inhibition of bovine trypsin.
Provide the recorded Ki for the entries that follow.

Given the entry CC(=O)N1C[C@H](O)C[C@H]1C(=O)NC(CCCN)C(=O)c1nc2ccccc2s1 (some centres not stated) , report its measured Ki.
16 nM

What about this compound? COS(=O)(=O)N1CCC[C@H]1C(=O)N[C@@H](CCCNC(=N)N)C(=O)c1nc2ccccc2s1
38 nM
